Reference source: patent US20250304571A1

# Test system: 786-O (renal cell carcinoma) cells
# procedure-summary: Cell viability (CellTiter Glo) assay, inhibition of 786-O cell proliferation
# Type: cell-based
# assay-context: Homo sapiens, 786-0; 786-O cells, 72 hours, CellTiter Glo; read-out: IC50, inhibition of 786-O cell proliferation
measured-parameter: IC50

-- ask Requested read-out: IC50. Entry: N=C(OCc1nc(Nc2ccc(Oc3ccccc3)cc2)c2cc[nH]c2n1)N1CCC(F)(F)CC1
-- reply 100 to 500 nM

-- ask Requested read-out: IC50. Entry: CC(C)Oc1ccc(N2C(=O)C3(CC3)c3cnc(COC(=N)N(CC(F)(F)F)C(C)C)nc32)cn1
-- reply 500 to 5000 nM

-- ask Requested read-out: IC50. Entry: CCC(CC)Oc1ccc(N2CC(C)(C)c3cnc(COC(=N)N(CC(F)(F)F)C(C)C)nc32)nc1
-- reply 100 to 500 nM
